assay-comment: folding enthalpy; higher = less favourable; fluorescence melt of hairpins on a sequencing array, two-state fit
condition-notes: sodium 0.088 M
attribute-measured: folding enthalpy (kcal/mol)

{"columns": ["chain-sequence", "attribute-measured", "uom", "number"],
 "data": [
  ["GGCATCGGAAACAATGCC (((((.(....).)))))", "folding enthalpy", "kcal/mol", -30.4],
  ["GGATGGGGAAACTCATCC (((((.(....).)))))", "folding enthalpy", "kcal/mol", -41],
  ["GTGCTTGGAAACAAGCGC (.(((((....))))).)", "folding enthalpy", "kcal/mol", -32.2],
  ["GTCTACCGAAAGGTGGAC (((.(((....))).)))", "folding enthalpy", "kcal/mol", -41.5],
  ["CGGGGCCGGAAACGGCCG (((..(((....))))))", "folding enthalpy", "kcal/mol", -4.87],
  ["GCATGGCGAAAGCCAAGC ((.((((....)))).))", "folding enthalpy", "kcal/mol", -17.6],
  ["GACACCGCGAAAGCGGTC (((..(((....))))))", "folding enthalpy", "kcal/mol", -6.65],
  ["GGAAACGAAAGTTTGTCC ((((((....)))..)))", "folding enthalpy", "kcal/mol", -18.8],
  ["GTTAGCGAAAGCTCTAAC ((((((....)))..)))", "folding enthalpy", "kcal/mol", -8.83],
  ["GAGGGGCGAAAGCCGCTC (((.(((....))).)))", "folding enthalpy", "kcal/mol", -30.6],
  ["GATCTACGGATAGATC ((((((....))))))", "folding enthalpy", "kcal/mol", -23.4],
  ["GCAGACGGAAACGTCCGC ((.((((....)))).))", "folding enthalpy", "kcal/mol", -24],
  ["GAGCACCGAAAGGTACTC (((.(((....))).)))", "folding enthalpy", "kcal/mol", -36.7],
  ["GCCCAAGAAATTGGGC ((((((....))))))", "folding enthalpy", "kcal/mol", -33.3],
  ["GCAACCGAAAGGTCGTGC ((((((....)))..)))", "folding enthalpy", "kcal/mol", -17.6],
  ["GTGGGCGAAAGCCATCAC ((((((....)))..)))", "folding enthalpy", "kcal/mol", -11.4],
  ["CGTTCGGAAACGAAACG ((((((....))).)))", "folding enthalpy", "kcal/mol", -27.8],
  ["GCCTAGCGAAAGCTACGC ((.((((....)))).))", "folding enthalpy", "kcal/mol", -19],
  ["GGAAACCCGAAAGGGTCC (((..(((....))))))", "folding enthalpy", "kcal/mol", -11.7],
  ["GCGCAGCGAAAGCTTAGC ((..(((....)))..))", "folding enthalpy", "kcal/mol", -9.17],
  ["GCCACGCGAAAGCATGGC ((((.((....)).))))", "folding enthalpy", "kcal/mol", -32.9],
  ["CGAGGACGGAAACGTTCG (((..(((....))))))", "folding enthalpy", "kcal/mol", -19.8],
  ["GTCAGAGAAATCTGAC ((((((....))))))", "folding enthalpy", "kcal/mol", -37.3],
  ["GGTACTGAAAAGTACC ((((((....))))))", "folding enthalpy", "kcal/mol", -39.5],
  ["GATCCAATGCTGGATC ((((((....))))))", "folding enthalpy", "kcal/mol", -32.5],
  ["GCTCTGGGAAACTGGAGC ((((..(....)..))))", "folding enthalpy", "kcal/mol", -34.1],
  ["GTTGTCGGAAACGGCAAC ((((.((....)).))))", "folding enthalpy", "kcal/mol", -37.7],
  ["GTTTTACGAAAGTAGAAC (((.(((....))).)))", "folding enthalpy", "kcal/mol", -29.2],
  ["CGCACGGAAACGTAAGCG ((((((....)))..)))", "folding enthalpy", "kcal/mol", -34.5],
  ["GATCATCCAGATGATC ((((((....))))))", "folding enthalpy", "kcal/mol", -37.5],
  ["GCTTGCCGAAAGGCAGC (((.(((....))))))", "folding enthalpy", "kcal/mol", -14.4],
  ["GAGATGGGAAACCACCTC (((.(((....))).)))", "folding enthalpy", "kcal/mol", -31.1],
  ["GTAACTCGAAAGAGTAC (((.(((....))))))", "folding enthalpy", "kcal/mol", -15],
  ["GATCCAGCGTTGGATC ((((((....))))))", "folding enthalpy", "kcal/mol", -44.2],
  ["GATCTTACTTAAGATC ((((((....))))))", "folding enthalpy", "kcal/mol", -35.6],
  ["GCTGTTCCGAAAGGAAGC (((..(((....))))))", "folding enthalpy", "kcal/mol", -14],
  ["GATCTAAATATAGATC ((((((....))))))", "folding enthalpy", "kcal/mol", -25.9],
  ["GGGTGTCCGAAAGGACCC (((..(((....))))))", "folding enthalpy", "kcal/mol", -14],
  ["GTGGGTCGAAAGACCAC (((.(((....))))))", "folding enthalpy", "kcal/mol", -14.3],
  ["GAGAGACGAAAGTCCCTC (((.(((....))).)))", "folding enthalpy", "kcal/mol", -25.8],
  ["GTATTGCGAAAGCAGTAC (((.(((....))).)))", "folding enthalpy", "kcal/mol", -26.8],
  ["GGAGGAACGAAAGTTTCC (((..(((....))))))", "folding enthalpy", "kcal/mol", -16.2],
  ["GATCAGCACCTGATC ((((((...))))))", "folding enthalpy", "kcal/mol", -31.1],
  ["GCATGTGGAAACACACGC ((.((((....)))).))", "folding enthalpy", "kcal/mol", -25.8],
  ["GCGCCCGAAAGGGTACGC ((((((....)))..)))", "folding enthalpy", "kcal/mol", -27.4]
]}
